- system.under.test: T1, His-tagged μ2C (μ2 170–435), wild type (rat, UniProt P84092 170-435)
- T1 sequence (looked up): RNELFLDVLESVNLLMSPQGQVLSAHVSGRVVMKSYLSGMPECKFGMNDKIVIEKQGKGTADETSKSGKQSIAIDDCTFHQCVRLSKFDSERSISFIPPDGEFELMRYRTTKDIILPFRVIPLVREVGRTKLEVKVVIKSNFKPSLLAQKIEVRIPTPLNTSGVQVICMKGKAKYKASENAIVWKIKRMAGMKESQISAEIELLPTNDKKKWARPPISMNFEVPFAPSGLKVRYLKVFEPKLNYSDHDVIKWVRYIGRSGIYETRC
- assay.comment: pull-down
property.label: binding result

GST-Dvl2 417–588 R489A (domain or fragment, murine, UniProt Q60838 417-588, looked up) LSVHMDMASVTKAMAAPESGLEVRDRMWLKITIPNAFLGSDVVDWLYHHVEGFPERREARKYASGLLKAGLIAHTVNKITFSEQCYYVFGDLSGGCESYLVNLSLNDNDGSSGASDQDTLAPLPGATPWPLLPTFSYQYPAPHPYSPQPPPYHELSSYTYGGGSASSQHSEG    binds
GST-Dvl2 417–588 D441K (domain or fragment, murine, UniProt Q60838 417-588, looked up) LSVHMDMASVTKAMAAPESGLEVRKRMWLKITIPNAFLGSDVVDWLYHHVEGFPERREARKYASGLLKAGLIRHTVNKITFSEQCYYVFGDLSGGCESYLVNLSLNDNDGSSGASDQDTLAPLPGATPWPLLPTFSYQYPAPHPYSPQPPPYHELSSYTYGGGSASSQHSEG    binds
GST-Dvl2 417–588 N451A (domain or fragment, murine, UniProt Q60838 417-588, looked up) LSVHMDMASVTKAMAAPESGLEVRDRMWLKITIPAAFLGSDVVDWLYHHVEGFPERREARKYASGLLKAGLIRHTVNKITFSEQCYYVFGDLSGGCESYLVNLSLNDNDGSSGASDQDTLAPLPGATPWPLLPTFSYQYPAPHPYSPQPPPYHELSSYTYGGGSASSQHSEG    binds
